Entry source: patent US12185723B2

Tested on: Lolium rigidum
test method notes: Post-emergence herbicidal action against LOLRI
Assay type: in vivo
measurement context: 20 g a.i./ha, visual rating about 3 weeks after treatment
measurement type: Herbicidal action against [%] LOLRI (%)

In [3]: df
Out[3]:
                                   compound   tested_target  unit_info  test_value
0  CSCCOC(=O)C1C=CC(NC(=O)C2(CF)CC(c3cc(F)cc(F)c3)=NO2)C1 (stereo not shown)  Lolium rigidum          %          90
1  CC1(C(=O)NC2C=CC(C(=O)OCCSCC(F)(F)F)C2)CC(c2cc(F)cc(F)c2)=NO1 (stereo not shown)  Lolium rigidum          %          80
2  COC(=O)CSCCOC(=O)C1C=CC(NC(=O)C2(C)CC(c3cc(F)cc(F)c3)=NO2)C1 (stereo not shown)  Lolium rigidum          %          90
3  CSCCOC(=O)C1=CC(NC(=O)C2(C)CC(c3cc(F)cc(F)c3)=NO2)CC1 (stereo not shown)  Lolium rigidum          %          90
